Parameter z-score: see the listing below.
target_system: NADPH oxidase 2 (Homo sapiens) (UniProt P04839)
Sequence (P04839 whole entry, looked up): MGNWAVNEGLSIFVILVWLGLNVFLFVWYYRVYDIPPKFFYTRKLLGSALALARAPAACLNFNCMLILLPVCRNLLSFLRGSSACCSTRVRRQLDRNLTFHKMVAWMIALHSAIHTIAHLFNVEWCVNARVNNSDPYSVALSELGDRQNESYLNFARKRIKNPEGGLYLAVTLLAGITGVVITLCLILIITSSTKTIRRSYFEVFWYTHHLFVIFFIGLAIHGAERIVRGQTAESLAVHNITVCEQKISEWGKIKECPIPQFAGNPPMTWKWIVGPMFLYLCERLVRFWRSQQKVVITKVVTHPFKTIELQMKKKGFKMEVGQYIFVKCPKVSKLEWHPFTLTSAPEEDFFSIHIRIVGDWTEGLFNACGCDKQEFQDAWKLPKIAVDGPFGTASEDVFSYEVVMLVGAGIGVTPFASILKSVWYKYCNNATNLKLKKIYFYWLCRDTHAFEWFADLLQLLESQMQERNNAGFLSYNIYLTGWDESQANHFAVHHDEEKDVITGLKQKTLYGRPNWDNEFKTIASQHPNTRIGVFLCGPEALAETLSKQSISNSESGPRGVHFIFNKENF
protocol_details: NOX2-dependent H2O2 signal modulators, primary screen, NOX inhibitor project, cell-based, HEK293-NOX2, PMA-stimulated, Amplex Red fluorescence (AID 1159); further: test concentration not given here
assay_conditions: 45 min, higher = more signal, called active from +8 up or from −8 down
Could you keep your reply to the number by itself?

Consider the following illustrative entries.
// query Note z-score for the molecule shown: `COC(=O)C(CC#Cc1ccc2c(c1)[C@]1(C(=O)N2)[C@H](C(=O)O)[C@H]2C(=O)O[C@H](c3ccccc3)[C@H](c3ccccc3)N2[C@@H]1c1ccc(O)cc1)C(=O)OC`
// result 0.699

// query Note z-score for the molecule shown: `C=CC[C@]1(C(=O)NCCCOC)N=C(c2ccc(OCCCO)cc2)O[C@H]1c1ccccc1N=[N+]=[N-]`
// result -1.06

// query Note z-score for the molecule shown: `CCCC=C(CCC)[C@@H](NC(=O)Oc1ccc(F)cc1)c1ccc(C(=O)OC)cc1`
// result -0.395

More entries:
// query Note z-score for the molecule shown: `CN1C(=O)[C@]2(Cc3ccccc3)N=C(c3ccc(OCCCO)cc3)O[C@@H]2c2ccccc21`
// result -2.02

// query Note z-score for the molecule shown: `CC(C)OC(=O)C=C1C[C@@H](c2ccccc2C(F)(F)F)O[C@@H](c2ccccc2C(F)(F)F)O1`
// result 0.441

// query Note z-score for the molecule shown: `COC(=O)[C@@]1(Cc2ccc(F)cc2)[C@H]2c3cc(C(=O)N(C)C)n(Cc4ccc(S(C)(=O)=O)cc4)c3C[C@H]2CN1C(=O)c1ccccc1`
// result 0.713

// query Note z-score for the molecule shown: Cc1ccc(C(C)CC(O)C2C=CC3C(=O)N(c4ccccc4)C(=O)C3N2Nc2ccc([N+](=O)[O-])cc2)o1 (centres undefined)
// result 0.414

// query Note z-score for the molecule shown: `COCCOC(=O)N1C(=O)[C@@]2(c3ccccc31)[C@H](c1ccc(O)cc1)N1[C@H](c3ccccc3)[C@H](c3ccccc3)OC(=O)[C@H]1[C@@H]2C(=O)NC[C@H](O)c1ccccc1`
// result 0.873

###

protocol_details: cell viability in Huh7 cells, primary screen, cytotoxicity control for HCV replication inhibitor project, CellTiter-Glo luminescence, basal, 48 h (AID 1143);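 further: Huh7 hepatoma cells carrying a hepatitis C replication reporter with no stimulus; test concentration not given here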
assay_conditions: Huh7 HCV replicon, higher = more signal, called active from +8 up or from −8 down
Quick rule for you: z-score at -0.1 or higher means satisfied, lower means not satisfied.

Answered cases to consult:
// query Given the entry `COCCOC(=O)N1C(=O)[C@@]2(c3cc(C#CCCO)ccc31)[C@H](C(=O)Nc1nc3ccccc3s1)[C@H]1C(=O)O[C@H](c3ccccc3)[C@H](c3ccccc3)N1[C@@H]2c1ccc(OCCO)cc1` , answer whether its z-score meets or surpasses -0.1.
// result not satisfied

// query Given the entry CCN(CC)c1ccc(N2CC=CC34O[C@@H]5/C=C\CCCOC(=O)C5[C@H]3C(=O)N(CCO)[C@@H]4C2=O)cc1 (some centres not stated) , answer whether its z-score meets or surpasses -0.1.
// result not satisfied

// query Given the entry CN1C(=O)C2C=CC(C(O)c3ccccc3)N(Nc3ccccc3)C2C1=O (configuration not stated) , answer whether its z-score meets or surpasses -0.1.
// result satisfied

// query Given the entry `COc1ccc([Si](C)(C)[C@@H]2[C@@H](CCO)O[C@]3(C(=O)N(Cc4ccc(N5C(=O)COc6ccccc65)cc4)c4ccccc43)[C@H]2C)cc1` , answer whether its z-score meets or surpasses -0.1.
// result not satisfied

// query Given the entry CCOc1cc(C(O)C2C=CC3C(=O)N(c4ccccc4)C(=O)C3N2Nc2ccccc2)ccc1O (configuration not stated) , answer whether its z-score meets or surpasses -0.1.
// result satisfied

More entries:
// query Given the entry O=C1NC(=O)C2C1C=CC(C(O)c1ccccc1)N2Nc1ccc(Cl)cc1Cl (configuration not stated) , answer whether its z-score meets or surpasses -0.1.
// result not satisfied

// query Given the entry `[N-]=[N+]=NCc1ccccc1[C@@H]1OC(c2ccc(OCCCO)cc2)=N[C@]1(Cc1ccccc1N=[N+]=[N-])C(=O)N1CCOCC1` , answer whether its z-score meets or surpasses -0.1.
// result not satisfied
